Cited source for all entries: PubChem BioAssay AID1159580

Reported normalized growth is given for each of the following compounds.
measurement_protocol: chemical genetic growth profiling, strain panel (AID 1159580);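 note: tested at 20 µM; growth read once vehicle control cultures reached saturation at 30 °C; 1 = growth at the plate median or of vehicle wells; lower values mean less growth of the strain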
protocol_conditions: S. cerevisiae deletion strains, growth OD, locus YJL164C, strain tpk1, hits give low values
Out of some 5,500 compounds screened, about 2,000 (36%) were called active. Not shown: some 18% with an inconclusive outcome. Some of the results follow.
Response field accepts a number only; no unit should be typed.

{"compound": "CC(=O)O[C@H]1CC[C@@]2(C)C(C[C@@H](OC(C)=O)[C@]3(C)C2CC[C@@]2(C)[C@H](c4ccoc4)OC(=O)[C@H]4O[C@]423)C1(C)C (stereo partly drawn)", "normalized growth": 0.995}
{"compound": "C=C[C@@]1(C)CC(=O)[C@@]2(O)[C@](C)(O1)[C@@H](OC(C)=O)[C@@H](O)C1C(C)(C)CC[C@H](O)[C@@]12C (stereo partly drawn)", "normalized growth": 0.995}
{"compound": "NC(=O)NC1NC(=O)NC1=O (stereo not drawn)", "normalized growth": 1}
{"compound": "CC(=O)O[C@@H]1CC2C(C)(C)C(=O)C3OC3[C@]2(C)C2CC[C@@]3(C)[C@H](c4ccoc4)OC(=O)C4OC43[C@@]21C (stereo partly drawn)", "normalized growth": 1.03}
{"compound": "O=NN(CCCl)C(=O)NCCCl", "normalized growth": 0.878}

Query: Which normalized growth value belongs to CCC(C)C(=O)c1c(O)c(C)c2oc3c(C)c(O)c(C(=O)C(C)CC)c(O)c3c2c1O (stereo not drawn) ?
Response: 0.977

Query: Which normalized growth value belongs to CC(=O)O[C@@H]1CC2C(C)(C)[C@H](O)CC[C@]2(C)C2CC[C@@]3(C)[C@H](c4ccoc4)OC(=O)C4OC43[C@@]21C (stereo partly drawn) ?
Response: 1.02

Query: Which normalized growth value belongs to CC(=O)O[C@H]1C[C@@H](OC(C)=O)C(C)(C)C2C[C@@H](O)[C@]3(C)C(CC[C@@]4(C)[C@H](c5ccoc5)OC(=O)[C@H]5O[C@]543)[C@]21C (stereo partly drawn) ?
Response: 1.01
